Assay overview: Waters ACQUITY UPLC BEH C18, 100 × 2.1 mm, 1.7 µm, 40 °C, 0.3 to 0.4 mL/min, estimated dead time 0.63 min; A: water + 0.1% formic acid; B: methanol + 0.1% formic acid; gradient (min/%B) 0/0.5 0.1/0.5 10/80 10.1/99.5 12/99.5
Condition info: stereoisomer not certain
Quick reference for LC retention time among some compounds
Provide only the numeric value, understood in min.

## Task Which measured LC retention time value corresponds to CC1OC(OC2C(Oc3cc(O)c4c(c3)OC(c3ccc(O)c(O)c3)CC4=O)OC(CO)C(O)C2O)C(O)C(O)C1O (centres undefined) ?
## Result 4.04

## Task # iterate: NC(Cc1c[nH]c2ccccc12)C(=O)O (centres undefined)
## Result 2.8

## Task Similarly, CC(CS)C(=O)N1CCCC1C(=O)O (centres undefined) ?
## Result 4.05

## Task Same lookup for O=C(O)C1CCCN1C(=O)C1CCCN1 (centres undefined) , please.
## Result 1.82

## Task What about CCC(C)C(NC(=O)C(N)Cc1ccccc1)C(=O)O (centres undefined) ?
## Result 3.79

## Task Would you mind doing CS(=O)CCCCN=C=S (centres undefined) as well?
## Result 3.69

## Task Also CC(CCC1(O)OC2CC3C4CC=C5CC(OC6OC(COC7OC(C)C(O)C(O)C7OC7OC(C)C(O)C(O)C7OC7OC(C)C(O)C(O)C7O)C(O)C(O)C6O)CCC5(C)C4CCC3(C)C2C1C)COC1OC(CO)C(O)C(O)C1O (centres undefined) , if possible.
## Result 5.1

## Task Another compound to look at: COc1ccc(-c2oc3c(CC=C(C)C)c(OC4OC(CO)C(O)C(O)C4O)cc(O)c3c(=O)c2OC2OC(C)C(O)C(O)C2O)cc1 (centres undefined)
## Result 5.43

## Task Ok, now COc1cc(C2c3cc4c(cc3C(O)C3COC(=O)C23)OCO4)cc(OC)c1OC (centres undefined)
## Result 6.26

====

Assay overview: Waters ACQUITY UPLC BEH C18, 100 × 2.1 mm, 1.7 µm, 40 °C, 0.3 to 0.4 mL/min, estimated dead time 0.63 min; A: water + 0.1% formic acid; B: methanol + 0.1% formic acid; gradient (min/%B) 0/0.5 0.1/0.5 10/80 10.1/99.5 12/99.5
Condition info: stereoisomer not certain
# cutoff 5 min applies to LC retention time; >= gives class 1, < gives class 0

The following compounds have reported results that may help.
{"Compound": "COc1cc(CC(=O)O)ccc1O", "Assigned category": "class 0"}
{"Compound": "O=C(C=Cc1ccc(O)cc1)OC1C(OC2C(Oc3ccc(-c4cc(=O)c5c(O)cc(O)cc5o4)cc3)OC(C(=O)O)C(O)C2O)OC(C(=O)O)C(O)C1O (stereo not drawn)", "Assigned category": "class 0"}
{"Compound": "COc1cc2c3cc1Oc1c(OC)c(OC)cc4c1C(Cc1ccc(cc1)Oc1cc(ccc1O)CC3N(C)CC2)N(C)CC4 (stereo not drawn)", "Assigned category": "class 0"}
{"Compound": "CC(C)=CCc1c(O)cc2c(c1O)C(=O)CC(c1ccccc1)O2 (stereo not drawn)", "Assigned category": "class 1"}
{"Compound": "CC(C)CC(N)C(=O)NC(CC(C)C)C(=O)O (stereo not drawn)", "Assigned category": "class 0"}

## Task Textbook exercise: given the entry CCCCCCCCCCCCCCC(O)C(O)C(N)CO (stereo not drawn) , state whether its LC retention time is greater than or equal to 5 min.
## Result class 1

## Task Another compound: CCCCCCCCC=CCCCCCCCC(=O)OCC(O)COP(=O)([O-])OCC[N+](C)(C)C (stereo not drawn)
## Result class 1

Data provenance is the RepoRT retention time repository.
